Measured inhibition by item
Test system: Hepatitis C virus NS3 helicase
Test: HCV NS3 helicase inhibitors, primary screen, biochemical, fluorescence polarization, LOPAC1280 library (AID 687035)
Settings: Purified HCV NS3 helicase, Cy5-dT15 ssDNA binding fluorescence polarization; stronger effect = higher value; concentration not given here
Activity calls are given as the source filed them. Rule as the data show it: active = inhibition above about 37%; inactive = the rest.

molecule | inhibition
O=C(O)c1ccccc1Nc1ccccc1 | 0% (inactive)
CCOC(=O)C(C)Oc1cccc2c(=O)n(CC(=O)Nc3ccc4c(c3)OCCO4)ccc12 (stereo unspecified) | -3% (inactive)
Clc1ccc(N2CCN(Cc3c[nH]c4ncccc34)CC2)cc1 | 12% (inactive)
CN(C)CCCC1(c2ccc(F)cc2)OCc2cc(C#N)ccc21 (stereo unspecified) | -4% (inactive)
Cn1cnc2c(NCc3ccccc3)nc(NCCO)nc21 | -2% (inactive)
CC1CCN(CC[C@H]2CCCN2S(=O)(=O)c2cccc(O)c2)CC1 | -3% (inactive)
O=C1NC(=O)c2cc(Nc3ccccc3)c(Nc3ccccc3)cc21 | 0% (inactive)
COc1cc(SC)ccc1C(=O)N1CCC(Cc2ccccc2)CC1 | 1% (inactive)
CC(C)(C)c1ccc(/C=C/C(=O)Nc2ccc3c(c2)OCCO3)cc1 | -1% (inactive)
COC1(C2=NCCN2)COc2ccccc2O1 (stereo unspecified) | -3% (inactive)
C[C@@H](CN1CCC(Cc2ccccc2)CC1)[C@@H](O)c1ccc(O)cc1 | -3% (inactive)

###

Test: human astrocyte viability loss, single and combined drugs, cytotoxicity control for chromothriptic childhood tumor combination screen, cell-based, BGB or cisplatin IC20 combos (AID 1671460);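 also: cells exposed to compounds for 96 hours before viability readout; 0% = vehicle and 100% = killing control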
Details: Human astrocytes, drug combinations, measured here: combo with cisplatin IC20, at 0.5 µM, stronger effect = higher value
Measured inhibition by item
quantity_measured: inhibition (%)

item_smiles | quantity_measured | assay_value
CO[C@H]1/C=C/O[C@@]2(C)Oc3c(C)c(O)c4c(O)c(c(C=NN5CCN(C)CC5)c(O)c4c3C2=O)NC(=O)/C(C)=C\C=C\[C@H](C)[C@H](O)[C@@H](C)[C@@H](O)[C@@H](C)[C@H](OC(C)=O)[C@@H]1C | inhibition | -7.29
O=c1ncccn1[C@@H]1O[C@H](CO)[C@@H](O)[C@H]1O | inhibition | 1.77
CCc1c2c(nc3ccc(O)cc13)-c1cc3c(c(=O)n1C2)COC(=O)[C@]3(O)CC | inhibition | 87
O=c1cc(-c2cccc3c2Sc2ccccc2S3)oc(N2CCOCC2)c1 | inhibition | -32.4
O=c1[nH]c(-c2ccc(C(F)(F)F)cc2)nc2c1CSCC2 | inhibition | -5.26

###

Molecular target: Calcium-dependent protein kinase 1 (Plasmodium falciparum (isolate 3D7))
Test: PfCDPK1 kinase inhibitors, biochemical, TCAMS library (AID 1159585);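 also: inhibitors leave more ATP so luminescence rises with inhibition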
Conditions: recombinant PfCDPK1, Kinase-Glo ATP depletion luminescence
Entries with a potency or affinity are not part of this list. Activity calls are given as the source filed them. No cut-off is given here; in the data, nearly all actives have IC50 up to about 0.98 µM.

compound | outcome
CC(C(=O)N1CCCC1)N1CCN(C(c2ccccc2)c2ccccc2)CC1 (stereo not given) | inactive
COc1cc(Cc2cnc(N)nc2N)cc(OCCCCNS(=O)(=O)C(F)(F)F)c1OC | inactive
COc1cc(NC(=O)c2nn(CCCN3CCC(N4CCCC4)CC3)cc2-c2ccc(Cl)c(Cl)c2)cc(OC)c1OC | inactive
CCc1cc(COc2ccc(CNCCC(C)C)cc2I)c(OCc2ccccc2)c(COc2ccc(CNCCC(C)C)cc2I)c1 | inactive
CC(CNC(=O)[C@H]1CNCCN1C(=O)CCCc1ccccc1)c1ccccc1 (stereo not given in full) | inactive

###

Test system: R275C
Assay: modulators of BK channel variants, profiling panel, selectivity assay, cell-based, U2OS BacMam, thallium flux, beta subunits (AID 1259406);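 also: initial slope of Thallos dye fluorescence rise after thallium is added; log ratio against the mean of 0.3% DMSO vehicle wells on the same plate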
Details: at 30 µM
So basically: log fold change Tl+ flux at -0.01 or higher? That is class 1. Lower than -0.01? That is class 0.

compound | answer_label
O=C(C(=NN=Cc1ccc2c(c1)OCO2)c1ccccc1)c1ccccc1 | class 0
NC(=O)c1ncn(C2OC(CO)C(O)C2O)n1 (stereo unspecified) | class 1
CC(Cc1ccc(O)c(O)c1)(NN)C(=O)O (stereo unspecified) | class 1
O=C(c1ccccc1)c1ccc2c(c1)Cc1ccccc1-2 | class 0
CCOC(=O)c1cc(CC)sc1NC(=O)C(Cl)(Cl)Cl | class 0
Cn1c(Sc2cnc(=S)[nH]c2-c2ccc(Cl)cc2)nnc1C(F)(F)F | class 0

###

Target: Plasmodium falciparum protein kinase 6 (PK6, PF3D7_1337100)
Test: PfPK6 kinase inhibitors, biochemical, TCAMS library (AID 1159586)
Details: recombinant PfPK6, Kinase-Glo ATP depletion luminescence
Potency and affinity values are given separately. Activity calls are given as the source filed them. No rule for the calls is given here.

compound | outcome
CCn1c(-c2nonc2N)nc2c(-c3ccc(CO)o3)ncc(OCCCN)c21 | inactive
Cc1cccc2[nH]c(-c3ccc(-c4cccc(CN5CCC(C(N)=O)CC5)c4)cc3)nc12 | inactive
COc1ccc(-n2cc(C(=O)c3cc(Br)ccc3O)cc(C#N)c2=O)cc1Cl | inactive
CC1CCNc2ccc(Cc3cnc(N)nc3N)cc21 (stereo not drawn) | inactive
N#Cc1ccc2c(c1)CN(CCC1CCC(NC(=O)c3cc4cc(OC(F)(F)F)ccc4[nH]3)CC1)CC2 (stereo not drawn) | inactive
O=C(O)CCSc1ncnc2nc[nH]c12 | inactive
O=C(/C=C/c1ccc(Cl)c(Cl)c1)NCCCCCCN1CCCN(C(=O)Nc2cccc(C(F)(F)F)c2)CC1 | inactive
CCN(CC)CCN(CCCc1ccc(-c2ccc(C(F)(F)F)cc2)cc1)C(=O)Cn1c(CCc2cccc(F)c2F)nc(=O)c2ccccc21 | inactive
c1cc(-c2ccc(CN3CCCC3)cc2)cc(-c2nc3ccccc3[nH]2)c1 | inactive
COc1cc2nc(NCC3CCN(c4nc(N)c5cc(OC)c(OC)cc5n4)CC3)nc(N)c2cc1OC | inactive
CCn1cc(C=C2Oc3c(ccc(O)c3CN3CCCCC3C)C2=O)c2ccccc21 (stereo not drawn) | inactive
CC(=O)Oc1c(Br)c(C)nc(C)c1-c1ccc(Oc2ccc(OC(F)(F)F)cc2)cc1 | inactive
N#Cc1cccc(C(=O)Nc2cccc(-c3ccc(CN4CCC(O)CC4)cc3)c2)c1 | inactive
CN(C)CCNCc1cccc(-c2ccc3c(Nc4ccc(Oc5ccccn5)cc4)ccnc3c2)c1 | inactive
COc1cccc2cc(C(=O)N[C@@H](CC(C)C)C(=O)N[C@H](/C=N/NC(=O)OC(C)(C)C)CC(C)C)oc12 | inactive
COc1ccc(NC(=O)/C=C/c2ccccc2Cl)cc1OCCN1CCC(Cc2cc3ccccc3[nH]2)CC1 | inactive
CN=C(N)c1ccc(NC(=O)C=Cc2ccc(C(=O)Nc3ccc(C(N)=NC)cc3)cc2)cc1 | inactive
CC(C)Cn1cc(C2CCN(CCN3CCC(CNC(=O)c4ccc(NC(=O)c5cc(Cl)cc(Cl)c5)cc4)CC3)CC2)c2ccccc21 | inactive
Cc1[nH]c(C)c(-c2ccc(Oc3ccc(Cl)cc3)cc2)c(=O)c1I | inactive
CN1CCN(Cc2ccc(-c3ccc4c(Nc5cc(O)c(Cl)cc5F)ccnc4c3)o2)CC1 | inactive
CS(=O)(=O)c1ccc(-n2nc(C(F)(F)F)cc2-c2ccc(/C=N/OCC(=O)O)o2)cc1 | inactive
CC(=O)Nc1ccc2[nH]cc(C3CCN(CC4CCC(NC(=O)/C=C/c5ccc(Cl)c(Cl)c5)CC4)CC3)c2n1 (stereo not drawn) | inactive
Fc1cccc(C=NNc2ccnc3ccccc23)c1 | inactive
CCOC(=O)c1cn(CC)c2cc(N3CCCCC3)c(F)cc2c1=O | inactive
CCc1ccc(NC(=O)c2ccc(CN3CCCN(Cc4cccc(O)c4)CC3)cc2)cc1 | inactive
CCOc1cc(C)ccc1C1CCN(CCCCNC(=O)c2cccc(-c3ccc(C(F)(F)F)cc3)c2)CC1 | inactive
O=C(NC1CCN(Cc2ccccc2O)C1)c1ccc(Cl)c(Cl)c1 (stereo not drawn) | inactive
CN(Cc1cnc2nc(N)nc(N)c2n1)c1ccc(C(=O)N[C@H](CCC(=O)OC(C)(C)C)C(=O)N[C@@H](CCC(=O)OC(C)(C)C)C(=O)OC(C)(C)C)cc1 | inactive
Cc1[nH]n(-c2cccc(Cl)c2)c(=O)c1-c1ccc(Cl)cc1 | inactive
CC(C)c1ccc(NC(=O)c2ccc(C(=O)NC3CCN(CC4CCCCC4)C3)cc2)cc1 (stereo not drawn) | inactive
CN1CCN(CCCN(Cc2ccc(-c3cccc(CNCc4ccc5c(c4)OCO5)c3)cc2)C(=O)CCC2CCCC2)CC1 | inactive
CCn1c(-c2nonc2N)nc2c(-c3cccc(NC(=O)Nc4cccc(C#N)c4)c3)ncc(OCCCN)c21 | inactive
Nc1cc(C(F)(F)F)ccc1Cl | inactive
Cc1cccc(CN2CCC(CNC(=O)c3cc4c(-c5ccccc5F)nn(C)c4s3)CC2)c1 | inactive
NS(=O)(=O)Cc1cccc(-c2ccnc3ccc(-c4cccc(S(N)(=O)=O)c4)cc23)c1 | inactive
CCN(CC)CCNc1cc(C)nc(/N=C(\N)Nc2ccc(Cl)cc2)n1 | inactive
Cc1cc(C(=O)OCC(=O)Nc2c(C)n(C)n(-c3ccccc3)c2=O)c(C)n1-c1ccc(F)cc1 | inactive
CC1(C)N=C(N)N=C(N)N1OCOc1ccc(Cl)cc1 | inactive
